Target: T1, 4H492-bA
T1 chain: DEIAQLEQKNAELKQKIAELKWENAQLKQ
Test: two-hybrid library CCNG1;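 note: natural log of median RNA to DNA barcode read ratio; higher means stronger binding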
Kind request: treat -0.08 as inclusive, so interaction score at -0.08 or higher is y, anything lower is n.

• DEIAQLEQKIAELEQKNAELKWKNAQLEQ [4H319-bA] = n
• DEIAQLEQENAELEQKNAELEWKIAQLKQ [4H182-bA] = n
• DEIAQLEQKNAELKQENAELKWKIAQLEQ [4H477-bA] = n
• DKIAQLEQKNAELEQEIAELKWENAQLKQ [4H2444-bA] = y

Ask: Check if interaction score >= -0.08 (inclusive). Item: DEIAQLEQEIAELEQKIAELEWKNAQLKQ [4H40-bA]
Result: y

Ask: Has DKIAQLKQKIAELEQENAELEWKNAQLEQ [4H2839-bA] a recorded interaction score greater than or equal to -0.08?
Result: n
